Please go through the items and note down their logP.
Assay: physchem
Numbers only.

A selection of reference data follows.
[[record]]
compound = "CC(C)(C)C(O)(CCCCc1ccccc1Cl)Cn1nc[nH]c1=S (centres unmarked)"
data_value = 4

[[record]]
compound = "CC(C)(C)C(O)(CCCCCc1ccccc1F)Cn1nc[nH]c1=S (centres unmarked)"
data_value = 4.2


# per-item lookup of logP; items listed below
1. CC(C)(C)C(O)(CCCCCc1ccc(F)cc1)Cn1nc[nH]c1=S (centres unmarked)
2. CC(C)(C)C(O)(CCCCc1ccccc1F)Cn1nc[nH]c1=S (centres unmarked)
3. CC(C)(C)C(O)(CCCCc1ccc(F)cc1)Cn1nc[nH]c1=S (centres unmarked)
4. CC(C)(C)C(O)(CCCCCc1ccc(Cl)cc1)Cn1nc[nH]c1=S (centres unmarked)

Result string:
[4, 3.4, 3.7, 4.4]

# per-item lookup of logP; items listed below
1. CC(C)(C)C(O)(CCCc1ccc(F)cc1F)Cn1nc[nH]c1=S (centres unmarked)
2. CC(C)(C)C(O)(CCCCc1ccc(Cl)cc1Cl)Cn1nc[nH]c1=S (centres unmarked)

Result string:
[3.3, 4.7]
